Assay: Plasma half-life
Type: in vivo
Conditions: human, oral, healthy volunteers and patients with B-cell malignancies
Excerpt: It is known that administration of an oral drug over a period equivalent to approximately 7 half-lives is necessary to achieve steady state plasma concentrations required for optimal antitumor activity, and that a period of approximately 7 half-lives is needed to clear a drug from the plasma after treatment interruption. […]
Observation type: half-life

Query block: # lookup: half-life of CN1CCC(c2ccccc2CC(C)(C)Nc2nc(N3CCOCC3)nc(-n3c(C(F)F)nc4ccccc43)n2)CC1
Result block: ~28 h

The reported measurements were obtained from patent US20210299134A1.
